Test system: HL-60
protocol.notes: Cytotoxicity assay (Cytotoxicity LDH Assay Kit)
Type: cell-based
condition.info: HL-60 cells, 24 h; read-out: CC50 ± SD against HL-60
endpoint.label: CC50

In: CC50 for FC(F)(F)Oc1ccc2nc(-c3ccc(OCCOCCOc4ccc(-c5nc6ccc(OC(F)(F)F)cc6[nH]5)nc4)cn3)[nH]c2c1 ?
Out: > 100 µM

###

System: U1
protocol.notes: Cytotoxicity assay (Cytotoxicity LDH Assay Kit)
Assay type: cell-based
condition.info: U1 cells, 24 h; read-out: CC50 ± SD against U1
endpoint.label: CC50

In: CC50 for FC(F)(F)Oc1ccc2nc(-c3ccc(OCCOCCOc4ccc(-c5nc6ccc(OC(F)(F)F)cc6[nH]5)nc4)cn3)[nH]c2c1 ?
Out: > 100 µM
